Header: Ki / 5-hydroxytryptamine receptor 2A (Homo sapiens) / multiple publications
Give a bare numeral; the unit nM is implied.

Here's what some known entries look like.
CN(C)CCCN(Cc1ccccc1)Cc1cccc(-c2ccc3[nH]nnc3c2)c1: 7.2
O=C(N[C@H]1CC[C@H](CCN2CCN(c3nccc4c3OCC4)CC2)CC1)C(F)(F)F: 45.7
O=c1c(N2CCNCC2)nccn1CCOc1ccc(C(F)(F)F)cc1: 8
CN1CCC(N(Cc2ccc(F)cc2)Cc2cc(-c3ccc4[nH]ccc4c3)ccc2F)CC1: 0.72
O=C(N[C@H]1CC[C@H](CCN2CCN(c3nccc4c3OCC4)CC2)CC1)c1cnc(N2CCOCC2)cn1: 29.6

Input: Request the reported Ki associated with N#Cc1ccc2ccn(CCCN3CCC(c4noc5cc(F)ccc45)CC3)c2c1
Output: 3.22

Input: Now consider O=C(CC1CCC1)N[C@H]1CC[C@H](CCN2CCN(c3nccc4c3OCC4)CC2)CC1 and answer again.
Output: 36.9

Input: Further, for O=C(CC1CC1)N[C@H]1CC[C@H](CCN2CCN(c3nccc4c3OCC4)CC2)CC1 ?
Output: 33.3

Input: Now consider C[C@]1(O)CC[C@H](C(=O)N[C@H]2CC[C@H](CCN3CCN(c4nccc5c4OCC5)CC3)CC2)CC1 .
Output: 32

Input: Then CN1CC[C@@H](N(Cc2cc(-c3ccc4[nH]ncc4c3)ccc2F)C(=O)c2ccc(F)cc2)C1 ?
Output: 0.75

###

pKi: −log10 of the molar value.
Reported pKi against 5-hydroxytryptamine receptor 2A (Homo sapiens), gathered from multiple publications, appears below.
Class 1 (yes): pKi at least 8. Class 0 (no): pKi below 8.

CCC(C)C(=O)N[C@H]1CC[C@H](CCN2CCN(c3nccc4c3OCC4)CC2)CC1 (mixture of isomers): 0 (no)
Cl.O=C(O)C1CN(CCCn2nc3ccccn3c2=O)CCN1c1cccc(Cl)c1 (centres unmarked): 0 (no)
O=C1CN2c3c(cccc3[C@@H]3CN(CCCOc4ccc(F)cc4Cl)CC[C@@H]32)N1: 1 (yes)

Could you now look at the following compound, please?
Input: // inclusive: pKi at least 8? input: CN1CC[C@H](N(Cc2cc(-c3ccc4[nH]ncc4c3)ccc2F)C(=O)c2ccc(F)cc2)C1
Output: 1 (yes)

###

Ki for 5-hydroxytryptamine receptor 2A (Homo sapiens, UniProt P28223) - collated from the literature.
A number alone suffices; assume nM.

Below are worked cases with known answers.
O=C(N[C@H]1CC[C@H](CCN2CCN(c3nccc4c3OCC4)CC2)CC1)c1ccc(F)cc1: 22.1
CCC(C)C(=O)N[C@H]1CC[C@H](CCN2CCC(c3coc4ccccc34)CC2)CC1 (mixture of isomers): 6.56
O=C(c1ccc(F)cc1F)N(CCN1CCCC1)Cc1cc(-c2ccc3[nH]nnc3c2)ccc1F: 0.71
CC(C)(C)C(=O)N[C@H]1CC[C@H](CCN2CCN(c3nccc4c3OCC4)CC2)CC1: 48.9
CN(C)CCN(Cc1ccc(F)cc1)Cc1cc(-c2ccc3[nH]cc(C#N)c3c2)ccc1F: 22.6

For the next question, use this compound.
Input: Look up Ki: CN(C)CCN(Cc1ccc(F)cc1)Cc1cc(-c2ccc3[nH]c(=O)oc3c2)co1
Output: 2.5

###

# literature pull: 5-hydroxytryptamine receptor 2A (Homo sapiens, UniProt P28223) Ki
# number only, unit nM dropped from output

CN1CCN(C(=O)c2cc(-c3ccc4[nH]ccc4c3)ccc2F)[C@@H](c2ccc(F)cc2)C1: 85
CC(C)N1CCC(N(Cc2cc(-c3ccc4[nH]nnc4c3)ccc2F)C(=O)c2ccc(F)cc2)CC1: 2.16
COc1cc2c(c(-c3ccccc3F)c1OC)CN(CCc1ccccc1Cl)CC2: 0.119
O=C(N[C@H]1CC[C@H](CCN2CCN(c3nccc4c3OCC4)CC2)CC1)C1(O)CC1: 9.91
CN1CCC(N(Cc2cc(-c3ccc4[nH]ccc4c3)ccc2F)C(=O)c2ccnnc2)CC1: 85

Input: If you can, please state the reported Ki value of Cc1ccc(C(=O)N[C@H]2CC[C@H](CCN3CCN(c4nccc5c4OCC5)CC3)CC2)cn1 .
Output: 25.2

Input: Thanks! And CC(C)=CC(=O)N[C@H]1CC[C@H](CCN2CCN(c3nccc4c3OCC4)CC2)CC1 ?
Output: 59.5

Input: Another compound: N#Cc1ccc(C(=O)N[C@H]2CC[C@H](CCN3CCN(c4nccc5c4OCC5)CC3)CC2)cc1
Output: 24.6

Input: Cool, now CCc1cc(F)ccc1OCCCN1CC[C@H]2[C@@H](C1)c1cccc3c1N2CC(=O)N3
Output: 0.3

Input: Repeat with CCN1CCC[C@H]1CN(Cc1cc(-c2ccc3[nH]nnc3c2)ccc1F)C(=O)c1ccc(F)cc1
Output: 2.13

Input: Okay, and CO[C@@H]1CC[C@@H](CC(=O)N[C@H]2CC[C@H](CCN3CCN(c4nccc5ccsc45)CC3)CC2)C1 (racemic) ?
Output: 7.7

Input: Follow-up entry: O=c1[nH]c2ccc(-c3coc(CN4CCNC[C@@H]4c4ccc(F)cc4)c3)cc2o1
Output: 4.79

Input: Please answer likewise for CS(=O)(=O)CC(=O)N[C@H]1CC[C@H](CCN2CCN(c3nccc4ccoc34)CC2)CC1
Output: 10.9

Input: Now consider Fc1ccc([C@H]2CNCCN2Cc2cc(-c3ccc4[nH]ncc4c3)co2)cc1 .
Output: 1.79

Input: Could you do the same for O=c1c(N2CCNCC2)nccn1CCOc1cccc([N+](=O)[O-])c1 , please?
Output: 13

Input: Thanks! And N#Cc1c[nH]c2ccc(-c3ccc(F)c(CN4CCNC[C@@H]4c4ccc(F)cc4)c3)cc12 ?
Output: 9.2

Input: Next entry: N#Cc1cc(F)ccc1OCCCN1CC[C@H]2[C@@H](C1)c1cccc3c1N2CC(=O)N3
Output: 3.8

Input: Repeat for the following compound: CN1CCC(N(Cc2ccc(F)cc2)Cc2cc(-c3ccc4[nH]ncc4c3)ccc2F)CC1
Output: 0.42
